- System: HT29 RNF43 G659fs (RNF43 659mut, CRISPR-edited)
- assay_protocol: cell viability activity relative to DMSO (negative = inhibition); higher = more viable cells (less growth inhibition)
- condition_details: 5 µM; 96 h
measure_name: cell viability activity (%)

- CC(C)NCCCn1c(Sc2cc3c(cc2I)OCO3)nc2c(N)ncnc21: -87
- COC(=O)C1=C(C)NC(C)=C(C(=O)OC2CCCN(Cc3ccccc3)C2)C1c1cccc([N+](=O)[O-])c1 (stereo not given): -85.8
- CN1CCN(CCOc2cc(OC3CCOCC3)c3c(Nc4c(Cl)ccc5c4OCO5)ncnc3c2)CC1: -54.8
- CO[C@@H](C)Cn1c(=O)n(C)c2cnc3ccc(-c4cncc(C(C)(C)O)c4)cc3c21: -81.7
- COc1cc(/C=C/c2ccc(OC)cc2OC)cc(OC)c1: -65.4
- Cc1nc(N)sc1-c1ccnc(Nc2ccc(N3CCOCC3)cc2)n1: -59.7
- Cc1cc(Nc2nc(N[C@@H](C)c3ncc(F)cn3)ncc2Cl)[nH]n1: -32.8
- CNCCCOc1cc(F)c(-c2c(Cl)nc3ncnn3c2N[C@@H](C)C(F)(F)F)c(F)c1: -72.6
- CCc1cccc(CC)c1NC(=O)N1Cc2[nH]nc(NC(=O)c3ccc(N4CCN(C)CC4)cc3)c2C1: -46.8
- CCN(CC)CCOc1ccc(C(=C(Cl)c2ccccc2)c2ccccc2)cc1: -98.4

###

- Test system: HT29 sg-Ctrl (RNF43 wildtype)
- assay_protocol: cell viability activity relative to DMSO (negative = inhibition); higher = more viable cells (less growth inhibition)
- condition_details: 5 µM; 96 h
measure_name: cell viability activity (%)

• CCCCCCCC[N+](C)(C)Cc1ccccc1 = -16.8
• CS(=O)(=O)N1CCN(Cc2cc3nc(-c4cccc5[nH]ncc45)nc(N4CCOCC4)c3s2)CC1 = -51.8
• CCCCCCCCCCCC[N+](C)(C)CCOc1ccccc1 = -91.5
• CCN(CC)CCNc1ccc(CO)c2sc3ccccc3c(=O)c12 = -27.7
• CCN(CC)CCOc1ccc(C(=C(Cl)c2ccccc2)c2ccccc2)cc1 = -97.9
• CCN(CC)CCOCCOC(=O)C(CC)(CC)c1ccccc1 = -61.1
• Cc1cccc(/C=N/Nc2cc(N3CCOCC3)nc(OCCc3ccccn3)n2)c1 = -62.4
• CN(Cc1cnc2nc(N)nc(N)c2n1)c1ccc(C(=O)N[C@@H](CCC(=O)O)C(=O)O)cc1 = -66
• CN(C)C/C=C/C(=O)Nc1cc2c(Nc3ccc(F)c(Cl)c3)ncnc2cc1O[C@H]1CCOC1 = -19.3
• O=C(NOCCO)c1cc(CN2OCCCC2=O)c(F)c(F)c1Nc1ccc(I)cc1F = -75

###

- System: HT29 RNF43 G659fs (RNF43 659mut, CRISPR-edited)
- assay_protocol: cell viability activity relative to DMSO (negative = inhibition); higher = more viable cells (less growth inhibition)
- condition_details: 5 µM; 96 h
Threshold check on cell viability activity: strictly below -70% is class 1; on or above -70% is class 0.

* CCCCCCCCCCCCCCC[C@@H](O)[C@@H](N)CO | class 0
* O=C(Nc1ccncc1)Nc1ccc(-c2nc(N3CCOCC3)nc(N3C4CCC3COC4)n2)cc1 | class 0
* CSc1ccccc1Nc1nc(N2CCNCC2)nc2c(NCC3CC3)ncnc12 | class 1
* OC1(c2ccc(Cl)c(C(F)(F)F)c2)CCN(CCCC(c2ccc(F)cc2)c2ccc(F)cc2)CC1 | class 1
* O=C(CCCCCCNC(=O)c1cnc(N(c2ccccc2)c2ccccc2)nc1)NO | class 0
* CCc1nc(C(N)=O)c(Nc2ccc(N3CCC(N4CCN(C)CC4)CC3)c(OC)c2)nc1NC1CCOCC1 | class 0
* CCCCCCCC[N+](C)(C)Cc1ccccc1 | class 0
* COc1cc(C(=O)NC2CCN(C)CC2)c(F)cc1Nc1ncc2c(n1)N(C1CCCC1)CC(F)(F)C(=O)N2C | class 0
* Nc1ccccc1NC(=O)c1ccc(CNc2nccc(-c3cccnc3)n2)cc1 | class 1
* Cc1cc(Nc2cc(N3CCN(C)CC3)nc(/C=C/c3ccccc3)n2)n[nH]1 | class 1
* COc1cc(N2CCC(N3CCN(C)CC3)CC2)ccc1Nc1ncc(Cl)c(Nc2ccccc2S(=O)(=O)C(C)C)n1 | class 0
* CN(NC(=O)CC(=O)NN(C)C(=S)c1ccccc1)C(=S)c1ccccc1 | class 0
* CC(C)c1cc(CNc2nc(Nc3cc(C4CC4)[nH]n3)cc(N3CCN(C)CC3)n2)on1 | class 1
* C=CC(=O)Nc1cccc(Nc2nc(Nc3ccc(OCCOC)cc3)ncc2F)c1 | class 0
* CCCCC(=O)O[C@H]1CC[C@H]2[C@@H]3CCc4cc(O)ccc4[C@H]3CC[C@]12C | class 0
* CCC1=C[C@@H]2CN(C1)Cc1c([nH]c3ccccc13)[C@@](C(=O)OC)(c1cc3c(cc1OC)N(C)[C@H]1[C@@](O)(C(=O)OC)[C@H](OC(C)=O)[C@]4(CC)C=CCN5CC[C@]31[C@@H]54)C2 | class 0
